B1: CLCN6 (parent)
chain: MAGCRGSLCCCCRWCCCCGERETR

variants of: B1; experiment: protein stability index of a GFP-peptide fusion (GPS, HEK-293T) (PSI 1-6); higher = more stable; settings: c terminus: a fixed tail appended;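 also: lentivirally expressed fusions sorted by FACS into six bins by GFP to DsRed ratio, PSI derived from sequencing read proportions per bin multiplied by bin number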
experimental.endpoint: protein stability index
Answer with a number only.

// `R21D` : protein stability index value = 2.82

// `C17N` : protein stability index value = 1.52

// `C11L` : protein stability index value = 3.23

// `C11W` : protein stability index value = 2.26

// `G19H` : protein stability index value = 1.15

// `C9K` : protein stability index value = 1.77

// `C18Q` : protein stability index value = 2.58

// `S7H` : protein stability index value = 1.89

// `C12K` : protein stability index value = 1.89

// `R13F` : protein stability index value = 2.78

// `C12N` : protein stability index value = 2.9

// `W14R` : protein stability index value = 2.22

// `S7Q` : protein stability index value = 1.49

// `C18M` : protein stability index value = 1.42

// `R5A` : protein stability index value = 1.98

// `E22M` : protein stability index value = 1.65

// `A2E` : protein stability index value = 2.77

// `R21V` : protein stability index value = 1.66

// `C10T` : protein stability index value = 3.66

// `R21K` : protein stability index value = 1.79

// `W14A` : protein stability index value = 1.89

// `L8T` : protein stability index value = 1.42

// `C11T` : protein stability index value = 2.24

// `R21Q` : protein stability index value = 1.39

// `W14T` : protein stability index value = 3.2

// `C12R` : protein stability index value = 1.95

// `R5W` : protein stability index value = 1.98

// `G6M` : protein stability index value = 1.41

// `E20W` : protein stability index value = 1.11

// `C4A` : protein stability index value = 1.84

// `E20S` : protein stability index value = 2.25

// `E20F` : protein stability index value = 1.55

// `L8D` : protein stability index value = 1.17

// `C12Y` : protein stability index value = 2.23

// `C16A` : protein stability index value = 2.12

// `S7W` : protein stability index value = 2.47

// `C17S` : protein stability index value = 1.45

// `E22D` : protein stability index value = 1.92

// `C12V` : protein stability index value = 1.94

// `R24D` : protein stability index value = 2.79

// `R24Y` : protein stability index value = 2.44

// `C16P` : protein stability index value = 1.33

// `G19W` : protein stability index value = 1.66

// `C11G` : protein stability index value = 3.4

// `C16S` : protein stability index value = 1

// `C4H` : protein stability index value = 2.07

Source of measurements: the supplement of paper PMC10567573
